studySystem: T1, His9-hMSR1 (human MSR1 extracellular domain) (Homo sapiens, UniProt P21757)
T1 construct: human MSR1 extracellular domain expressed with a N-terminal nonahistidine tag; His9 (nonahistidine) (N); purchased R&D Systems 2708-MS
T1 sequence (P21757 77-451 limits assumed): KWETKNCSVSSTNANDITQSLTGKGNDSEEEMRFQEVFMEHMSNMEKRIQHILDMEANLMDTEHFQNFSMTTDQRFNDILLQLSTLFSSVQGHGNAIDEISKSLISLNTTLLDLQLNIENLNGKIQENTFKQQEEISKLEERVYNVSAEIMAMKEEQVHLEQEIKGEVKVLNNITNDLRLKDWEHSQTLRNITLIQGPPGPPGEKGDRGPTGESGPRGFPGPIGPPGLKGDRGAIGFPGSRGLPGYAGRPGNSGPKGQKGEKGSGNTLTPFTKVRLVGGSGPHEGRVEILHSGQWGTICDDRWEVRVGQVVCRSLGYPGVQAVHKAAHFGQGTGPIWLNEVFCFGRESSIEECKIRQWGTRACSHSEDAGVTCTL
testDescription: Biacore T200 surface plasmon resonance binding kinetics of anti-MSR1 antibody-drug conjugates and parental antibodies
cond: 25° C.; Table 19, antibody-LXR ADCs and unconjugated antibodies
# ka annotations

Known results for molecules:
# molecule, result
measured = [
    ("H1H27734P-N297Q-LP1 (conjugate) VH: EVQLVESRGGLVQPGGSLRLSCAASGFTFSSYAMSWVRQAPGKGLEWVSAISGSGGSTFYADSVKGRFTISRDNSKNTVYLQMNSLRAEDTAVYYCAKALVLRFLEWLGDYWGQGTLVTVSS VL: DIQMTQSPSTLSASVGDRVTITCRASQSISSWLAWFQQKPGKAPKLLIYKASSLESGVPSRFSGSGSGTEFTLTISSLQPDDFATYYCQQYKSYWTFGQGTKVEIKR", "69300 M⁻¹ s⁻¹"),
    ("H1H27739P-N297Q: anti-MSR1 antibody \"made with an N297Q single point mutation in human Fcγ portion\" (antibody, V domains shown) VH: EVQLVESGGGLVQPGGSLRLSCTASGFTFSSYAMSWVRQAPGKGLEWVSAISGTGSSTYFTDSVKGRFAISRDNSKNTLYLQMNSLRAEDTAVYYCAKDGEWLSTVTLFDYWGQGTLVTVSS VL: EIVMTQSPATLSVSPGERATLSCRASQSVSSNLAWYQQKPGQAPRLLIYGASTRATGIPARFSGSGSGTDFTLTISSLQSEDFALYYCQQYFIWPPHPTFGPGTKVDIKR", "119000 M⁻¹ s⁻¹"),
]

Quick check: ka of H1H27729P-N297Q-LP1 (conjugate) VH: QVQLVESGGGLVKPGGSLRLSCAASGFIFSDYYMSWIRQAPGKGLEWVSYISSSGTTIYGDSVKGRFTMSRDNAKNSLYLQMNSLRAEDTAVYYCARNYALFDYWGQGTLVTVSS VL: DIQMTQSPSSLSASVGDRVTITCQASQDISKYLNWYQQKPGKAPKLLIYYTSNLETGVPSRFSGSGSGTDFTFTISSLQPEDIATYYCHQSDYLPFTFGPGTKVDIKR ?
54700 M⁻¹ s⁻¹

Okay, and H1H27739P-N297Q-LP1 (conjugate) VH: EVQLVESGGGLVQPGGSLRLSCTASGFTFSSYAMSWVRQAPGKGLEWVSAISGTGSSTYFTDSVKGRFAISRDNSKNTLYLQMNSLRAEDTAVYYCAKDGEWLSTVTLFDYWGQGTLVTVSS VL: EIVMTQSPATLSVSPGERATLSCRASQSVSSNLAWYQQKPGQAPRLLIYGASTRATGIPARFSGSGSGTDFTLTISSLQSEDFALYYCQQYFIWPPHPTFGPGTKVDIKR ?
88800 M⁻¹ s⁻¹

Okay, and H1H27754P-N297Q-LP1 (conjugate) VH: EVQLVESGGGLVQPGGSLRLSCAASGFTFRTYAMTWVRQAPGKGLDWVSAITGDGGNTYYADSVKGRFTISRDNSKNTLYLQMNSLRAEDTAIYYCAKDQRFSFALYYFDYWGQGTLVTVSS VL: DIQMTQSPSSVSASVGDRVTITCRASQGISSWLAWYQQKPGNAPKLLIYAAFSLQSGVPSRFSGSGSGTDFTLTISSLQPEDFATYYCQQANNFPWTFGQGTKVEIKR ?
177000 M⁻¹ s⁻¹
